Test system: Saccharomyces cerevisiae
experiment_notes: protein stability index of tFT-peptide fusion (C-terminal peptide) (PSI (0-1 scale)); higher = more stable (slower turnover)
setup_conditions: genetic background: das1 deletion; temperature: 30 C
measured_quantity: protein stability index

>>> result_value("LERILHEMHPPA [EOS1 C-terminal 12 aa]")
0.714
>>> result_value("LREMMNKDFAGL [PSD2 C-terminal 12 aa]")
0.708
>>> result_value("TQKKVDQRWKKH [SEN54 C-terminal 12 aa]")
0.692
>>> result_value("QELCADSTIYHM [LIP1 C-terminal 12 aa]")
0.687
>>> result_value("PPSDPSSIKIRN [KIN28 C-terminal 12 aa]")
0.711
>>> result_value("IPAKKTKISLDY [ELP4 C-terminal 12 aa]")
0.685
>>> result_value("DEKTLDSIGNSL [VCX1 C-terminal 12 aa]")
0.701
>>> result_value("LDAEYYIKFASK [ERD1 C-terminal 12 aa]")
0.694
>>> result_value("DIISAFEEYKNA [SEC3 C-terminal 12 aa]")
0.714
>>> result_value("ANESLEEDLNLD [YBR137W C-terminal 12 aa]")
0.698
